assay: Acute toxicity on mice; type: in vivo; details: mouse, in vivo, iv, I.V., male, read-out: LD50
result_type: LD50

Which measured LD50 value corresponds to CC(=O)Oc1c(C)c(C)c2c(c1C)CCC(C)(CCCC(C)CCCC(C)CCCC(C)C)O2 (racemic) [TA, dl-α-tocopheryl acetate] ?
> 1000 mg/kg

====

assay: Acute toxicity on rats; assay type: in vivo; details: rat, in vivo, po; rats, P.O., male; read-out: LD50
result_type: LD50

Bench note: what LD50 did CC(=O)Oc1c(C)c(C)c2c(c1C)CCC(C)(CCCC(C)CCCC(C)CCCC(C)C)O2 (racemic) [TA, dl-α-tocopheryl acetate] show?
> 15000 mg/kg
